Ref: patent US7803930B2

Test system: human apolipoprotein B mRNA
Assay: Inhibition of human apolipoprotein B mRNA levels in HepG2 cells, quantitative real-time PCR
Assay type: cell-based
Conditions: Table 19 dose response; HepG2 cells, 150 nM; normalized to untreated control
Procedure: The human hepatoblastoma cell line HepG2 was obtained from the American Type Culture Collection (Manassas, Va.). […] Quantitation of apolipoprotein B mRNA levels was determined by real-time quantitative PCR using the ABI PRISM™ 7700 Sequence Detection System (PE-Applied Biosystems, Foster City, Calif.) according to manufacturer's instructions. […]
In the oligonucleotide strings, read from the 5' end, every base follows the letter of its sugar. An asterisk marks phosphorothioate; unmarked linkages are phosphodiester. Other units and linkages are bracketed, terminal groups are in braces. A string of capitals states the bases alone. e = 2'-O-(2-methoxyethyl) (MOE); [5mC] = 5-methylcytosine; d = 2'-deoxy (DNA)
Record form. Attribute: % inhibition 150 nM. Fill in for each entry.
Numbers only, in %.

Below, 2 substances whose answers are already recorded.
1. 301037 (e[5mC]*eA*eG*e[5mC]*eT*dT*dT*dG*dG*dT*dG*d[5mC]*dA*dG*dG*eT*e[5mC]*e[5mC]*eA*eG; antisense) [compound 301037]
89
2. 301034 (eT*eG*e[5mC]*eT*eT*dA*dT*dA*dG*dT*d[5mC]*dT*dA*d[5mC]*dT*eG*e[5mC]*e[5mC]*eT*eA; antisense) [compound 301034]
93

Now, please, on to the next substance.
Input: Record lookup: for human apolipoprotein B mRNA, what % inhibition 150 nM belongs to 301029 (eG*eG*e[5mC]*eT*eG*dG*d[5mC]*dT*d[5mC]*dA*d[5mC]*dT*dG*dT*dA*eT*eG*eG*eT*eT; antisense) [compound 301029] ?
Output: 79

* * *

Kindly state % Inhibition of apolipoprotein B mRNA for each of the entries shown.
Test system: Cynomolgous monkey apolipoprotein B mRNA
Test: Apolipoprotein B mRNA in primary Cynomolgous monkey hepatocytes, real-time PCR
Type: cell-based
Settings: primary Cynomolgous monkey hepatocytes; 300 nM; 24 hours (Table 46)
In the oligonucleotide strings, read from the 5' end, every base follows the letter of its sugar. An asterisk marks phosphorothioate; unmarked linkages are phosphodiester. Other units and linkages are bracketed, terminal groups are in braces. A string of capitals states the bases alone. e = 2'-O-(2-methoxyethyl) (MOE); [5mC] = 5-methylcytosine; d = 2'-deoxy (DNA)
Give bare numbers, in %.

List the reported % Inhibition of apolipoprotein B mRNA of each substance below.
1. 13650 (TCCCGCCTGTGACATGCATT; listed as DNA, chemistry not given here) [compound 13650]
2. 315089 (antisense eA*eG*eA*eT*eT*dA*d[5mC]*d[5mC]*dA*dG*d[5mC]*d[5mC]*dA*dT*dA*eT*eG*e[5mC]*eA*eG) [compound 315089]

Output:
1: 33; 2: 82

Please give % Inhibition of apolipoprotein B mRNA, item by item, for the list that follows.
1. 281625 (antisense eA*eG*eG*eT*eT*dA*d[5mC]*d[5mC]*dA*dG*d[5mC]*d[5mC]*dA*d[5mC]*dA*eT*eG*e[5mC]*eA*eG) [compound 281625]
2. 113529 (antisense e[5mC]*eT*e[5mC]*eT*eT*dA*d[5mC]*dT*dG*dT*dG*d[5mC]*dT*dG*dT*eG*eG*eA*e[5mC]*eA) [compound 113529]

Output:
1: 69; 2: 28
